Below are IC50 values recorded for Serine/threonine-protein kinase B-raf (Homo sapiens).
Reply numerically in nM, unit not repeated.

Guide cases for IC50, answers given:
| SAMPLE_SMILES | READOUT_UNITS | IC50 |
| --- | --- | --- |
| Cc1nc(Nc2cccc(NC(=O)Nc3ccc(Cl)c(C(F)(F)F)c3)c2)cc(N2CCOCC2)n1 | nM | 271 |
| Cc1nc(Cl)cc(Nc2cccc(NC(=O)Nc3ccc(Cl)c(C(F)(F)F)c3)c2)n1 | nM | 722 |

Shift focus to the following entry.
Query: Write down the reported IC50 of Cc1nc(N2CCN(C)CC2)cc(N(C)c2cccc(NC(=O)Nc3ccc(Cl)c(C(F)(F)F)c3)c2)n1 , test system: Serine/threonine-protein kinase B-raf (Homo sapiens).
Sequence (P15056 whole entry): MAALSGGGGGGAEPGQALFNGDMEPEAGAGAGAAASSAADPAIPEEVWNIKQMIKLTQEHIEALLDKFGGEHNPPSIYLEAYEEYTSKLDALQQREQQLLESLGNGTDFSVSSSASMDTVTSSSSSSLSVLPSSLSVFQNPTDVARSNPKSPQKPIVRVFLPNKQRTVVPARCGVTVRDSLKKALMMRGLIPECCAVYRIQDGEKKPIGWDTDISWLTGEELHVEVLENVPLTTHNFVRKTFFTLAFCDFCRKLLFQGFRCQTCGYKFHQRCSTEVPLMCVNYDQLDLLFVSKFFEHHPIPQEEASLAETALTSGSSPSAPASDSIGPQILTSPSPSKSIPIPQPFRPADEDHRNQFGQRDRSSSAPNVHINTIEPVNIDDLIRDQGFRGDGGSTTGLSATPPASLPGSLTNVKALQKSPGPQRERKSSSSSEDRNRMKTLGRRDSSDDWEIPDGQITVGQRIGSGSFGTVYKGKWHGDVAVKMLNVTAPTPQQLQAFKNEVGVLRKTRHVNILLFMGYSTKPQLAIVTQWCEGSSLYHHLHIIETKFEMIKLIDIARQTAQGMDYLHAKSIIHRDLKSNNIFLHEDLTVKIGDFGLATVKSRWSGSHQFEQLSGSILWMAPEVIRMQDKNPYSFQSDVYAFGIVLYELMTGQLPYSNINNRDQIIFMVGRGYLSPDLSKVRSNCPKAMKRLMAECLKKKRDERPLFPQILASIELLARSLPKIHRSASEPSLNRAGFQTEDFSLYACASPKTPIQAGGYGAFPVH
Reply: 5280

---

TARGET_OF_ASSAY: Serine/threonine-protein kinase B-raf [V600E] (Homo sapiens, UniProt P15056, V600E)
Sequence (P15056 2-766 V600E limits assumed): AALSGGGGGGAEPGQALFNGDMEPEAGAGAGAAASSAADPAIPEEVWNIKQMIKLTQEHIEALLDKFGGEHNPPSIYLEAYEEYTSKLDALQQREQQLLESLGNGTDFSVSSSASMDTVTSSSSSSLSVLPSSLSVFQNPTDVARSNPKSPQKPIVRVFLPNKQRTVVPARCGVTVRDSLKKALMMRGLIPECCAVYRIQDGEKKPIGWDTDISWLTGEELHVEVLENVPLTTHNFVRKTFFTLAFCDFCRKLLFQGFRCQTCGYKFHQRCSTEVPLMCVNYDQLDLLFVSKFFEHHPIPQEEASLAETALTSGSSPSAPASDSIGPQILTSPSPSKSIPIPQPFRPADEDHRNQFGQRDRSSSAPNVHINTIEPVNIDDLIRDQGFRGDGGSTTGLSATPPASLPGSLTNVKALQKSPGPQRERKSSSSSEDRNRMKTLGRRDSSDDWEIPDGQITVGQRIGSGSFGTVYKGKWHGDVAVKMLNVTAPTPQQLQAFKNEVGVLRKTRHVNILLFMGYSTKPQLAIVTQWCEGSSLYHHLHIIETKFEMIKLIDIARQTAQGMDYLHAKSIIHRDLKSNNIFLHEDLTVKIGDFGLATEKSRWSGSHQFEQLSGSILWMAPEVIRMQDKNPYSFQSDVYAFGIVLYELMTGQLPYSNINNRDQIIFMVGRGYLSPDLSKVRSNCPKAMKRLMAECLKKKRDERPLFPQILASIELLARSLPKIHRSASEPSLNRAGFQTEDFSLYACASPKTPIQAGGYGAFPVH
PROTOCOL_SUMMARY: Biochemical Assay
RECORDED_CONDITIONS: pH 7.5; 25 °C
Method: Compounds were prepared in DMSO at 10mmol/L and serially diluted in a 96-well plate as the source plate. The intermediate plate consists of 4µL from the source plate mixed with 96µL of 1× kinase buffer (50mmol/L HEPES, pH 7.5; 10mmol/L MgCl2; 1mmol/L EGTA; 0.01% Brij-35). Of 2.5µL was transferred to a 384-well assay plate in duplicates. […]
OBSERVATION_TYPE: IC50 (nM)
Reply numerically in nM, unit not repeated.

Guide cases for IC50, answers given:
| SAMPLE_SMILES | RECORDED_VALUE |
| --- | --- |
| Cc1nc(N2CCOCC2)cc(N(C)c2cccc(NC(=O)Nc3ccc(F)c(Cl)c3)c2)n1 | 232 |
| Cc1nc(N2CCN(C)CC2)cc(N(C)c2cccc(NC(=O)Nc3ccc(Cl)c(C(F)(F)F)c3)c2)n1 | 4990 |
| Cc1nc(N2CCOCC2)cc(N(C)c2cccc(NC(=O)Nc3ccc(Cl)c(C(F)(F)F)c3)c2)n1 | 1370 |
| Cc1nc(Cl)cc(Nc2cccc(NC(=O)Nc3ccc(Cl)c(C(F)(F)F)c3)c2)n1 | 298 |
| Cc1nc(Nc2cccc(NC(=O)Nc3ccc(Cl)c(C(F)(F)F)c3)c2)cc(N2CCN(C)CC2)n1 | 7170 |
| Cc1nc(Nc2cccc(NC(=O)Nc3ccc(Cl)c(C(F)(F)F)c3)c2)cc(N2CCOCC2)n1 | 142 |

Shift focus to the following entry.
Query: Entry under review: Cc1nc(Nc2cccc(NC(=O)Nc3ccc(F)c(Cl)c3)c2)cc(N2CCOCC2)n1 . Reported IC50?
Reply: 626
